Source of measurements: ChEMBL document CHEMBL5154649

# Tested on: Plasmodium falciparum
# Method description: Antiplasmodial activity against CQ-susceptible Plasmodium falciparum 3D7 assessed as inhibition of parasite growth measured after 48 hrs by SYBR Green 1 dye based fluorescence assay
# Assay type: functional, organism-based
# Settings: 3D7, 48 h
Quantity kind: IC50 (nM)

* O[C@@H](CNCCCC(F)(F)F)c1cc(C(F)(F)F)nc2c(C(F)(F)F)cccc12 | 57.6
* OC[C@H](NC[C@@H](O)c1cc(C(F)(F)F)nc2c(C(F)(F)F)cccc12)c1ccccc1 | 103
* O[C@H](CNCCN1CCN(C(c2ccccc2)c2ccccc2)CC1)c1cc(C(F)(F)F)nc2c(C(F)(F)F)cccc12 | 75.7
* COC[C@H](C)NC[C@@H](O)c1cc(C(F)(F)F)nc2c(C(F)(F)F)cccc12 | 11.7
